TARGET OR TEST SYSTEM: CD45 (Homo sapiens, UniProt P08575)
Construct: incubating the cytosolic portion of CD45 with the compounds and p-nitrophenyl phosphate (pNPP); purchased BIOMOL (Plymouth Meeting, Pa.)
Sequence (P08575 599-1306 limits assumed): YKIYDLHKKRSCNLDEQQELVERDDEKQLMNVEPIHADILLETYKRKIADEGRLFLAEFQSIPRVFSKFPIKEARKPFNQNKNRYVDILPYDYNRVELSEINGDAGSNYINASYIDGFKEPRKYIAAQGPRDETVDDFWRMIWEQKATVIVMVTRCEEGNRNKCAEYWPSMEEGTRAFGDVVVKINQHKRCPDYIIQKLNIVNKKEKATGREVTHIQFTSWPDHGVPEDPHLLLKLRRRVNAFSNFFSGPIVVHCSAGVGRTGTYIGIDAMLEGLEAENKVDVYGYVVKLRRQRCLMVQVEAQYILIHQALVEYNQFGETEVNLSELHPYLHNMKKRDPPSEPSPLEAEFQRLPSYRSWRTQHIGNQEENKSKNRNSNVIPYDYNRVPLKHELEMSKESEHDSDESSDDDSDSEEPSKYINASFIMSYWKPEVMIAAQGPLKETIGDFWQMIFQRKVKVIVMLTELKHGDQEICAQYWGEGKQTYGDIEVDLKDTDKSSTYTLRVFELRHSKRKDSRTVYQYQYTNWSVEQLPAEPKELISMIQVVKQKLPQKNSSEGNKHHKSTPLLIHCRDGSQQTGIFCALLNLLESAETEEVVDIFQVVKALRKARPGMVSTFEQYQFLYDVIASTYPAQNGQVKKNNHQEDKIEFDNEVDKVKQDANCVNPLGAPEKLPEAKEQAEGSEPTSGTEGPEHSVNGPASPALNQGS
MEASUREMENT DESCRIPTION: Phosphatase assay using pNPP as substrate
Format: biochemical
CONDITIONS USED: CD45 phosphatase, pNPP substrate, pH 7.0; read-out: pNPP IC50
READOUT KIND: pIC50
A value of pIC50 is the negative decimal logarithm of a concentration given in moles per litre.

>  <SMILES STRING>
CC(C)CNC(=O)[C@H](CCC(N)=O)NC(=O)CNC(=O)c1ccc2c(c1)-c1ccccc1C(=O)C2=O

>  <READOUT KIND>
pIC50

>  <RESULT NUMBER>
5.96

$$$$
>  <SMILES STRING>
COC(=O)CCCC(=O)Nc1ccc2c(c1)C(=O)C(=O)c1cccc(NC(=O)CCCC(=O)OC)c1-2

>  <READOUT KIND>
pIC50

>  <RESULT NUMBER>
6.10

$$$$
>  <SMILES STRING>
CC(=O)c1ccc2c(c1)C(=O)C(=O)c1ccccc1-2

>  <READOUT KIND>
pIC50

>  <RESULT NUMBER>
6.10

$$$$
>  <SMILES STRING>
Nc1cccc2c1-c1ccccc1C(=O)C2=O

>  <READOUT KIND>
pIC50

>  <RESULT NUMBER>
6.10

$$$$
>  <SMILES STRING>
Cc1ccc(S(=O)(=O)N(c2ccc3c(c2)C(=O)C(=O)c2ccccc2-3)S(=O)(=O)c2ccc(C)cc2)cc1

>  <READOUT KIND>
pIC50

>  <RESULT NUMBER>
4.89

$$$$

input: Entry O=C1C(=O)c2cc(-c3ccsc3)ccc2-c2ccccc21 : reported pIC50 = ?
output: 6.10

input: Next: COC(=O)CCCC(=O)Nc1cccc2c1-c1ccccc1C(=O)C2=O
output: 6.00

====

TARGET OR TEST SYSTEM: CD45 (Homo sapiens, UniProt P08575)
Construct: incubating the cytosolic portion of CD45 with the compounds and p-nitrophenyl phosphate (pNPP); purchased BIOMOL (Plymouth Meeting, Pa.)
MEASUREMENT DESCRIPTION: Phosphatase assay using pNPP as substrate
Format: biochemical
CONDITIONS USED: pH 7; read-out: pNPP IC50
Where a SMILES comes first, the peptide text is derived from it. The star is where a group is joined. Phenanthrenequinone2carbonyl = O=C1C(=O)c2cc(C(=O)*)ccc2-c2ccccc21; X1 = O=C1C(=O)c2cc(N*)ccc2-c2ccccc21
Form field: IC50 (one value per entry).
Output spec: scalar in nM, unitless text.

>  <MOLECULE>
O=C(O)CC[C@H](NC(=O)c1ccc2c(c1)C(=O)C(=O)c1ccccc1-2)C(=O)NCC(=O)N1CCC[C@H]1C(=O)N[C@@H](CCC(=O)O)C(=O)NCC(=O)O [Example 41] (Phenanthrenequinone2carbonyl-EGPEG-OH)

>  <TARGET OR TEST SYSTEM>
CD45 (Homo sapiens, UniProt P08575)

>  <RESULT UNITS>
nM

>  <RESULT NUMBER>
1400

$$$$

input: Entry N=C(N)NCCC[C@H](NC(=O)c1ccc2c(c1)C(=O)C(=O)c1ccccc1-2)C(=O)NCC(=O)N1CCC[C@H]1C(=O)N[C@@H](CCC(=O)O)C(=O)NCC(=O)O [Example 42] (Phenanthrenequinone2carbonyl-RGPEG-OH) : reported IC50 = ?
output: 900

input: Next: N=C(N)NCCC[C@H](NC(=O)c1ccc2c(c1)C(=O)C(=O)c1ccccc1-2)C(=O)N[C@@H](CCC(=O)O)C(=O)N1CCC[C@H]1C(=O)N[C@@H](CCC(=O)O)C(=O)NCC(=O)O [Example 45] (Phenanthrenequinone2carbonyl-REPEG-OH)
output: 1400

input: Next: CC(=O)N[C@@H](Cc1ccccc1)C(=O)N[C@H](C(=O)N[C@@H](C)C(=O)N[C@H](C(=O)N[C@@H](CCC(=O)O)C(=O)NCC(=O)N[C@@H](CCC(N)=O)C(=O)N[C@@H](CC(=O)Nc1ccc2c(c1)C(=O)C(=O)c1ccccc1-2)C(=O)O)[C@@H](C)O)[C@@H](C)O [Example 62] (Ac-FTATEGQD(X1)-OH)
output: 1400
